This collection of values is drawn from patent US20230117034A1.

- assay.system: CDK2/CycE (Homo sapiens, UniProt P24941)
- assay.notes: CDK2/CycE kinase assay (TR-FRET, 2 mM ATP)
- test.context: 2 mM ATP (high ATP); median; read-out: CDK2/CyclinE, 2 mM ATP (high ATP), IC50 (median)
pIC50: −log10 of the molar value.

# compound, assay.system, pIC50
data = [
    ("c1ccc2[nH]c(CNc3nc(N4CCNCC4)nc4c(C5CC5)cnn34)nc2c1 [Example 247]", "CDK2/CycE (Homo sapiens, UniProt P24941)", "< 4.70"),
    ("Fc1cc2nc(CNc3nc(N4CCOCC4)nc4c(C5CC5)cnn34)[nH]c2cc1Cl [Example 307]", "CDK2/CycE (Homo sapiens, UniProt P24941)", "< 4.70"),
    ("Fc1ccc2[nH]c(CNc3nc(N4CCOCC4)nc4c(CC(F)(F)F)cnn34)nc2c1F [Example 268]", "CDK2/CycE (Homo sapiens, UniProt P24941)", "< 4.70"),
    ("C[C@@H]1CN(c2nc(NCc3nc4ccccc4[nH]3)n3ncc(Br)c3n2)C[C@H](C)N1C [Example 129]", "CDK2/CycE (Homo sapiens, UniProt P24941)", "< 4.70"),
]
